Reference source: paper PMC8161026

Tested on: Colon Cancer subpanel
Assay: cells
Details: full panel MG_MID / Colon Cancer subpanel MG_MID
Method: At the first stage of biological activity study, the antitumor activity screening of the selected compounds 2b, 2c, 2f, 2h, and 2j was performed according to the NCI DTP (USA) standard protocol at the concentrations ranging from 10^−4 to 10^−8 M toward 60 tumor cell lines. The percentage of growth was evaluated spectrophotometrically versus controls not treated with test agents after 48 h exposure and using SRB protein assay to estimate cell viability or growth. […]
SI (selectivity index), GI50 values by entry
readout.kind: SI (selectivity index), GI50

> print(dat)
                                   compound                  readout.kind  value.measured
1  O=C1/C(=C/C(Cl)=C/c2ccc([N+](=O)[O-])cc2)SC(=S)N1/N=C\C(Cl)=C\c1ccc([N+](=O)[O-])cc1 [Compound 2c]  SI (selectivity index), GI50            0.87
2  O=C1/C(=C/C(Cl)=C/c2ccc([N+](=O)[O-])cc2)SC(=S)N1c1ccc(O)cc1 [Compound 2f]  SI (selectivity index), GI50            1.52
3  O=C(O)C(Cc1ccccc1)N1C(=O)/C(=C/C(Cl)=C/c2ccc([N+](=O)[O-])cc2)SC1=S (stereo not shown) [Compound 2j]  SI (selectivity index), GI50            1.87
4  O=C1NC(=S)S/C1=C\C(Cl)=C\c1ccc([N+](=O)[O-])cc1 [Compound 2b]  SI (selectivity index), GI50            1.46
